# TESTED SYSTEM: CaRvs167
# METHOD DESCRIPTION: SPOT peptide array binding signal intensity (averaged, normalized) (arbitrary units (background-subtracted, floor 0; scale differs between SH3 domains)); higher = stronger binding of the SH3 domain to the peptide
Below: a set of entries, each annotated with reported SPOT peptide array binding signal intensity.
READOUT LABEL: SPOT peptide array binding signal intensity

BINDER	LIMIT SIGN	RESULT NUMBER
PHNPSPFFPPPDFND	=	0.333
IKTRSVPKIPSIESV	=	339
GTIARPLFLVVLFFI	=	49
MPAPPPPPPPPPGAF	≤	0
IFLRISINFPLNYPN	=	750
HRRRRVFSIPSLKSI	=	103
